# credit: patent US20250011365A1

Assay Comment: in vivo
Settings: SD, rat, iv, 5 mg/kg
Numbered stars: 1 amine (or outer) side, 2 acyl side, 3 side chain; on linkers, the order of the positions; unused ones are H or OH. Bridge positions count the residues as written; N and C are the ends. Square brackets hold non-standard residues; d marks the D form. Peptide text beside a SMILES is read from it. * marks the point of attachment. Orn(4R-OH,5R-OCH2CH2NMe3+) = C[N+](C)(C)CCO[C@@H](N[*:3])[C@H](O)C[C@H](N[*:1])C(=O)[*:2]; hTyr(3S-OH,4S-OH) = N[C@H](C(=O)O)[C@H](O)[C@@H](O)c1ccc(O)cc1; X1 = CCCCCOc1cc(F)c(C#Cc2ccc3cc(C(=O)*)ccc3c2)cc1F; Pro(3S-OH,4S-Me) = C[C@H]1CN[C@H](C(=O)O)[C@H]1O; Hyp = O=C(O)[C@@H]1C[C@@H](O)CN1

{"Compound": "CCCCCOc1cc(F)c(C#Cc2ccc3cc(C(=O)N[C@H]4C[C@@H](O)[C@@H](OCC[N+](C)(C)C)NC(=O)[C@@H]5[C@@H](O)[C@@H](C)CN5C(=O)[C@H]([C@@H](C)O)NC(=O)[C@H]([C@H](O)[C@@H](O)c5ccc(O)cc5)NC(=O)[C@@H]5C[C@@H](O)CN5C(=O)[C@H]([C@@H](C)O)NC4=O)ccc3c2)cc1F [Example 16] (X1-[Orn(4R-OH,5R-OCH2CH2NMe3+)]T[Hyp][hTyr(3S-OH,4S-OH)]T[Pro(3S-OH,4S-Me)]; lactam 1-C)", "AUC(0-t) / µg·h/mL": 326}
